hERG current change (%, negative = inhibition) at 10uM overview
- SYSTEM: human ether-à-go-go-related gene (hERG) potassium channel (human);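 note: peak tail current of the secondary pulse compared with the same well before compound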
- Sequence (Q12809 whole entry, looked up): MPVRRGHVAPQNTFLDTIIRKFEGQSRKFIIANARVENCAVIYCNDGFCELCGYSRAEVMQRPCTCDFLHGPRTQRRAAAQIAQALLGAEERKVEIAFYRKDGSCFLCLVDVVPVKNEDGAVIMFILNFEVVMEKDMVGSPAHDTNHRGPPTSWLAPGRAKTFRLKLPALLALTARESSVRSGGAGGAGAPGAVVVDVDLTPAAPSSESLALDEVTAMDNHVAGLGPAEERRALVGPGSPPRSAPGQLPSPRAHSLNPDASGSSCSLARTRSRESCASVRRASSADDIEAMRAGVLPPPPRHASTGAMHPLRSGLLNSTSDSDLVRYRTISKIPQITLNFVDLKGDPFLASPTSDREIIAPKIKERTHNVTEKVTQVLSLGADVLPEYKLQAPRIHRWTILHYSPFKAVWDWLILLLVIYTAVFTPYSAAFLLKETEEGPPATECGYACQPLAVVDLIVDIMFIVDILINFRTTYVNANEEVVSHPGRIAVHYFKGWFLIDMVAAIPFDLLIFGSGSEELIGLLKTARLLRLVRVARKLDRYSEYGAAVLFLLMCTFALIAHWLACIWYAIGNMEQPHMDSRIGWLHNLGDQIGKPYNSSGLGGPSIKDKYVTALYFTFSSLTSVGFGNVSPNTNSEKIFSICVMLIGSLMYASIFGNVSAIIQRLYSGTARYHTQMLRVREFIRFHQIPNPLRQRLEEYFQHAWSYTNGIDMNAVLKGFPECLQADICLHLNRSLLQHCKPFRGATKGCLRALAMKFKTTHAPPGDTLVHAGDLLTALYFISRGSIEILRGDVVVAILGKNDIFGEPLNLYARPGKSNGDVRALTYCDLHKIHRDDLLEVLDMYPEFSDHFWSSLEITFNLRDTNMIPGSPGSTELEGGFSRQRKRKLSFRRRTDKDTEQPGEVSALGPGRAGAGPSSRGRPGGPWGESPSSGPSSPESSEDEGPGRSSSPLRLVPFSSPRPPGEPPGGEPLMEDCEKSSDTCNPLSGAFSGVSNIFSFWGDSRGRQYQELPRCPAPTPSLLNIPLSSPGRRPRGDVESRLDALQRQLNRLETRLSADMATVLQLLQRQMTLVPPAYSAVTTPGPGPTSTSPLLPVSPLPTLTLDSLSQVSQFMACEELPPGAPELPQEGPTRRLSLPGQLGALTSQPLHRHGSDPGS
- ASSAY_OVERVIEW: primary screen, population patch clamp on CHO cells stably expressing hERG; higher = less effect of the substance
The whole screen tested about 310,000 compounds, of which about 14,000 (4.5%) showed an effect of 50% or more. The effect is printed as a negative number. The sample as a whole holds a higher share of strong results than the screen did.
Please reply with the bare figure in % and do not write the unit itself.

For orientation, consider the following solved cases.
- CC(=O)Nc1ccc(S(=O)(=O)N2CCCC2C(=O)Nc2ccc(F)cc2)cc1 (stereo not shown): 11.2
- Cc1ccc2c(c1)c1nc3ccccc3nc1n2C: 21.3
- Cc1nc2c3cc(Cl)ccc3n(CCN3CCOCC3)c2s1: -52.2

Req: # input compound: Cc1cc(C)nc(NC(=O)c2c(F)c(F)c(F)c(C(=O)Nc3cc(C)cc(C)n3)c2F)c1 ; wanted: its hERG current change (%, negative = inhibition) at 10uM
Resp: -8.14

Req: Now the same for Cc1nc2c3cc(F)ccc3n(CCN3CCCCC3)c2s1.Cl
Resp: -69.9

Req: Now the same for Cn1c(=O)c2c(SCc3cccnc3)nc(C3CC3)nc2n(C)c1=O
Resp: -9.63

Req: Now the same for CCc1ccc2c(c1)c1nc(C)sc1n2CC
Resp: -5.89

Req: Now the same for c1ccc2nc3c(nc2c1)c1ccccc1n3CCN1CCOCC1
Resp: -48.5

Req: Now the same for Cc1ccc2c(c1)c1nc3ccccc3nc1n2CCN1CCOCC1
Resp: -62.8

Req: Now the same for Cc1nc2c3ccccc3n(CCN3CCCCC3)c2s1.Cl
Resp: -28.9

* * *

- SYSTEM: human ether-à-go-go-related gene (hERG) potassium channel (human);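 note: peak tail current of the secondary pulse compared with the same well before compound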
- ASSAY_OVERVIEW: primary screen, population patch clamp on CHO cells stably expressing hERG; higher = less effect of the substance
- Procedure: Briefly, Chinese hamster ovary (CHO) cells stably expressing the hERG channel were dislodged from tissue culture flasks and dispensed into PPC plates. […] During the recording, background leak currents were estimated by a 100 ms step to -80 mV from an initial holding potential of -70 mV and subtracted from the subsequent current measurement. The campaign was conducted in two phases using slight differences in recording protocol. […]
Hit rate of the full screen: of about 310,000 compounds, about 14,000 (4.5%) showed an effect of 50% or more. Effects have a minus sign here. Shown is part of a subset that was picked to be rich in strong results.
hERG current change (%, negative = inhibition) at 10uM overview
Please reply with the bare figure in % and do not write the unit itself.

For orientation, consider the following solved cases.
* Cc1ccc(C)c(OCc2cc(C(=O)NC3CCN(Cc4ccccc4)CC3)no2)c1 | -41.1
* COCCN(CCOC)S(=O)(=O)c1ccc(C(=O)Nc2ccncc2)cc1 | -11.6
* O=C(NC1CCN(Cc2ccccc2)C1)c1cc(COc2ccc(F)cc2F)on1 (stereo not shown) | -64.2
* O=C(CN1CCN(c2ccccc2)CC1)Nc1ccc2c(c1)OCCO2 | 5.46
* CCOC(=O)N1CCN(c2cc(N3CCOCC3)c(F)cc2[N+](=O)[O-])CC1 | -18.2
* Cc1c(NC(=O)OCCNC(=O)COc2ccc(Cl)cc2Cl)sc(=S)n1C | -5.51
* Cc1ccc(SCc2nc3ccccc3n2CC(=O)Nc2ccc(Cl)cc2)cc1 | -8.31
* Cc1nnc(SCCN2CCOCC2)n1-c1cccc(Cl)c1.O=C(O)C(=O)O | -4.95
* CC1(C)CC(=O)C2=C(C1)N(CCN1CCOCC1)C1=C(C(=O)CC(C)(C)C1)C2c1ccc(Cl)cc1 | -34.1
* Cc1cccc(N2CCN(CC(=O)Nc3ccccc3[N+](=O)[O-])CC2)c1C | -0.256

Req: # input compound: CC1(C)CC(=O)C2=C(C1)N(CCN1CCOCC1)C1=C(C(=O)CC(C)(C)C1)C2c1cccc(Cl)c1 ; wanted: its hERG current change (%, negative = inhibition) at 10uM
Resp: -54

Req: Now the same for CC(C)n1c(N2CCN(CC(=O)Nc3ccc4c(c3)OCCO4)CC2)nc2ccccc21
Resp: -65.4

Req: Now the same for CC(=O)Nc1ccc(S(=O)(=O)N2CCN(c3nc4ccccc4n3CC(C)C)CC2)cc1
Resp: -30.9

Req: Now the same for CCCn1c(N2CCN(CC(=O)Nc3ccc4c(c3)OCCO4)CC2)nc2ccccc21.Cl
Resp: -60.4

Req: Now the same for CCn1c(N2CCN(S(=O)(=O)CC)CC2)nc2ccccc21
Resp: -37.7

Req: Now the same for CCC1=NN(C(=O)c2ccccc2Br)C(O)(c2ccc(Br)cc2)C1 (stereo not shown)
Resp: 25.2

Req: Now the same for CCCCNc1nc2ccccc2n1CC(=O)Nc1ccc2c(c1)OCCO2
Resp: -10.2

Req: Now the same for O=C(CN1CCN(c2ccc(O)cc2)CC1)Nc1ccc2c(c1)OCCO2
Resp: 2.24

Req: Now the same for CCn1c(N2CCN(CC(=O)Nc3cccc(C)c3C)CC2)nc2ccccc21
Resp: -63.6

Reference for the values: paper PMC4336329
